# Tested target: Nuclear receptor subfamily 1 group I member 2 (Homo sapiens) (UniProt O75469)
# Sequence (O75469 whole entry, looked up): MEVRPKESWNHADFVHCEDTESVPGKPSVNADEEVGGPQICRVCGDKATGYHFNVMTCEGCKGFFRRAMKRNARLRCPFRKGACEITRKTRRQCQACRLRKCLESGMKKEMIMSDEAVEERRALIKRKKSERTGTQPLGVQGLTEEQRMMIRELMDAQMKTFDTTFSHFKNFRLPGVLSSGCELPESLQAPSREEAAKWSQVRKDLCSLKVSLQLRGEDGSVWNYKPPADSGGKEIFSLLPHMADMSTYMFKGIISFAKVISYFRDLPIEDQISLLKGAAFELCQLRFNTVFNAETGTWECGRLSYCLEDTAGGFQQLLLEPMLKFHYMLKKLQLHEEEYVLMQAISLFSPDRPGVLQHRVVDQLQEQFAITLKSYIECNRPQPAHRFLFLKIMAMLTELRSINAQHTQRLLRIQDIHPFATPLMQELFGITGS
# Assay notes: ATG_PXR_TRANS: Attagene TRANS-FACTORIAL HepG2 Assay for human Pregnane X Receptor (PXR) (AID 2283008)
Results filed as inconclusive are left out. Activity calls are given as the source filed them. How the source made its calls: active means hit-call score of the fitted dose curve at least 0.9, where 1 is the maximum; inconclusive means response in the unintended direction; inactive means score below 0.9.
Return exactly one item of YES (active), NO (inactive)

Use these answered entries as a reference point.
Compound	Tested target	Class
CCCCCCCCCCCCCOP(=O)(O)O	Nuclear receptor subfamily 1 group I member 2 (Homo sapiens) (UniProt O75469)	NO
COCCCOCCCOC	Nuclear receptor subfamily 1 group I member 2 (Homo sapiens) (UniProt O75469)	NO
CCCCCCCCc1ccc(Nc2ccc(CCCCCCCC)cc2)cc1	Nuclear receptor subfamily 1 group I member 2 (Homo sapiens) (UniProt O75469)	YES
CC(C)c1ccc2cc(C(C)C)ccc2c1	Nuclear receptor subfamily 1 group I member 2 (Homo sapiens) (UniProt O75469)	YES
CCN(CC)c1ccc(C(=O)c2ccccc2C(=O)O)c(O)c1	Nuclear receptor subfamily 1 group I member 2 (Homo sapiens) (UniProt O75469)	YES
C[C@]12CCC(=O)C=C1CC[C@@H]1[C@@H]2C(=O)C[C@@]2(C)[C@H]1CC[C@]2(O)C(=O)CO	Nuclear receptor subfamily 1 group I member 2 (Homo sapiens) (UniProt O75469)	YES

Name the outcome recorded for Nc1ncn([C@@H]2O[C@H](CO)[C@@H](O)[C@H]2O)c(=O)n1 in the assay. NO

Record lookup: outcome of this test for Cc1ccc(C(C)(C)C)cc1 ? NO

Can you look up the reported call for CC(C)c1ccc(C#N)cc1 for me? NO

What did the test return for CCc1ccc2c(c1)C(=O)c1ccccc1C2=O ? YES

Test call for this compound, please: CC(=O)[C@@]1(O)CC[C@H]2[C@@H]3C[C@H](C)C4=CC(=O)C=C[C@]4(C)[C@@]3(F)[C@@H](O)C[C@@]21C NO

Entry CC(=O)OC1C2(C)CCC(C2)C1(C)C (stereo not drawn) : call = ? NO

Recorded call for C=C(C)c1cccc(C(C)(C)N=C=O)c1 ? YES

Ref: PubChem BioAssay (EPA / NIEHS)
